Test system: MDA-MB-231
Experiment: Antiproliferative activity against human MDA-MB-231 cells assessed as reduction in cell viability incubated for 48 hrs by CCk-8 assay
Type: functional, cell-based
Conditions: MDA-MB-231, 48 h

{"compoundSmiles": "C[C@H]1CCC/C=C/[C@@H]2C[C@H](OC(=O)c3ccccc3C(=O)Oc3ccc(-c4cc(=S)ss4)cc3)C[C@H]2[C@H](OC(=O)c2ccccc2C(=O)Oc2ccc(-c3cc(=S)ss3)cc2)/C=C/C(=O)O1", "systemUnderTest": "MDA-MB-231", "IC50": "> 40 µM"}
{"compoundSmiles": "C[C@H]1CCC/C=C/[C@@H]2C[C@H](O)C[C@H]2[C@H](OC(=O)c2ccccc2C(=O)OCCOc2ccc(-c3cc(=S)ss3)cc2)/C=C/C(=O)O1", "systemUnderTest": "MDA-MB-231", "IC50": "> 40 µM"}
{"compoundSmiles": "C[C@H]1CCC/C=C/[C@@H]2C[C@H](O)C[C@H]2[C@H](OC(=O)c2ccccc2C(=O)OCCCCCCOc2ccc(-c3cc(=S)ss3)cc2)/C=C/C(=O)O1", "systemUnderTest": "MDA-MB-231", "IC50": "> 40 µM"}
{"compoundSmiles": "C[C@H]1CCC/C=C/[C@@H]2C[C@H](O)C[C@H]2[C@H](OC(=O)CCC(=O)OCCCCOc2ccc(-c3cc(=S)ss3)cc2)/C=C/C(=O)O1", "systemUnderTest": "MDA-MB-231", "IC50": "0.5 µM"}
{"compoundSmiles": "C[C@H]1CCC/C=C/[C@@H]2C[C@H](OC(=O)CCC(=O)OCCOc3ccc(-c4cc(=S)ss4)cc3)C[C@H]2[C@H](OC(=O)CCC(=O)OCCOc2ccc(-c3cc(=S)ss3)cc2)/C=C/C(=O)O1", "systemUnderTest": "MDA-MB-231", "IC50": "> 40 µM"}
